Exercise: for every item that follows, state its recorded zone of inhibition at 100 µg/mL.
Test system: Pseudomonas aeruginosa
Assay: Antibacterial activity against Pseudomonas aeruginosa ATCC 9027 at 100 ug/ml by cup-plate method
Format: functional
Conditions: read-out: IZ

Sample answers from the record:
O=C(c1cccnc1Nc1nc2c(Cl)cccc2s1)N1CCNC(Cl)C1Cl (configuration not stated) : 3 mm
O=C(c1cccnc1Nc1nc2cc(Cl)ccc2s1)N1CCNC(Cl)C1Cl (configuration not stated) : 0 mm
O=C(c1cccnc1Nc1nc2c([N+](=O)[O-])cccc2s1)N1CCNC(Cl)C1Cl (configuration not stated) : 8 mm
O=C(c1cccnc1Nc1nc2ccc(Cl)cc2s1)N1CCNC(Cl)C1Cl (configuration not stated) : 8 mm

Provide zone of inhibition at 100 µg/mL values for the following items, in order.
1. O=C(c1cccnc1Nc1nc2cc(Cl)ccc2s1)N1CCN(CCO)CC1
2. CC1(C)S[C@@H]2[C@H](NC(=O)Cc3ccccc3)C(=O)N2[C@H]1C(=O)O [PENICILLIN G]
3. O=C(c1cccnc1Nc1nc2ccccc2s1)N1CCN(CCO)CC1
4. O=C(c1cccnc1Nc1nc2c([N+](=O)[O-])cccc2s1)N1CCN(CCO)CC1
5. Cc1ccc2nc(Nc3ncccc3C(=O)N3CCN(CCO)CC3)sc2c1

Reply:
1. 0 mm
2. 13 mm
3. 8 mm
4. 8 mm
5. 0 mm

* * *

Tested on: Bacillus subtilis
Test: Antibacterial activity against Bacillus subtilis ATCC 6633 at 200 ug/ml by cup-plate method
Assay type: functional
Conditions: read-out: IZ
Exercise: for every item that follows, state its recorded zone of inhibition at 200 µg/mL.
Give bare numbers, in mm.

Sample answers from the record:
O=C(c1cccnc1Nc1nc2cc(Cl)ccc2s1)N1CCN(CCO)CC1 : 5
COc1cccc2sc(Nc3ncccc3C(=O)N3CCN(CCO)CC3)nc12 : 10
O=C(c1cccnc1Nc1nc2cc([N+](=O)[O-])ccc2s1)N1CCN(CCO)CC1 : 8
O=C(c1cccnc1Nc1nc2ccc([N+](=O)[O-])cc2s1)N1CCN(CCO)CC1 : 6

Continue with the next compound.
Ask: Provide the documented zone of inhibition at 200 µg/mL with Bacillus subtilis as the system for CC1(C)S[C@@H]2[C@H](NC(=O)[C@H](N)c3ccccc3)C(=O)N2[C@H]1C(=O)O [AMPICILLIN]
Reply: 30

* * *

Tested on: Bacillus subtilis
Experiment: Antibacterial activity against Bacillus subtilis ATCC 6633 at 200 ug/ml by cup-plate method
Format: functional
Details: read-out: IZ
Would you please tag the item 1 when its zone of inhibition at 200 µg/mL is 8 mm or above, and 0 when it is below?

COc1cccc2sc(Nc3ncccc3C(=O)N3CCNC(Cl)C3Cl)nc12 (configuration not stated) : 1

Ask: Is it the case that O=C(c1cccnc1Nc1nc2ccccc2s1)N1CCNC(Cl)C1Cl (configuration not stated) has zone of inhibition at 200 µg/mL reaching or exceeding 8 mm?
Reply: 0

Ask: Is it the case that Cc1ccc2nc(Nc3ncccc3C(=O)N3CCNC(Cl)C3Cl)sc2c1 (configuration not stated) has zone of inhibition at 200 µg/mL reaching or exceeding 8 mm?
Reply: 0

Ask: Is it the case that O=C(c1cccnc1Nc1nc2c([N+](=O)[O-])cccc2s1)N1CCNC(Cl)C1Cl (configuration not stated) has zone of inhibition at 200 µg/mL reaching or exceeding 8 mm?
Reply: 1

Ask: Is it the case that COc1ccc2nc(Nc3ncccc3C(=O)N3CCNC(Cl)C3Cl)sc2c1 (configuration not stated) has zone of inhibition at 200 µg/mL reaching or exceeding 8 mm?
Reply: 0

Ask: Is it the case that Cc1cccc2sc(Nc3ncccc3C(=O)N3CCNC(Cl)C3Cl)nc12 (configuration not stated) has zone of inhibition at 200 µg/mL reaching or exceeding 8 mm?
Reply: 0

Ask: Is it the case that O=C(c1cccnc1Nc1nc2c([N+](=O)[O-])cccc2s1)N1CCN(CCO)CC1 has zone of inhibition at 200 µg/mL reaching or exceeding 8 mm?
Reply: 1

Ask: Is it the case that Cc1ccc2sc(Nc3ncccc3C(=O)N3CCNC(Cl)C3Cl)nc2c1 (configuration not stated) has zone of inhibition at 200 µg/mL reaching or exceeding 8 mm?
Reply: 0

Ask: Is it the case that COc1ccc2nc(Nc3ncccc3C(=O)N3CCN(CCO)CC3)sc2c1 has zone of inhibition at 200 µg/mL reaching or exceeding 8 mm?
Reply: 0

Ask: Is it the case that CC1(C)S[C@@H]2[C@H](NC(=O)Cc3ccccc3)C(=O)N2[C@H]1C(=O)O has zone of inhibition at 200 µg/mL reaching or exceeding 8 mm?
Reply: 1
